Attribution: patent US4459294A

Test system: Meloidogyne incognita
Assay: Biological activity on Meloidogyne incognita (Nematoda)
Format: in vivo
Settings: 20 ppm; 21 days after transplanting
readoutLabel: percentage of reduction of the infestation, Meloidog. I. (%)
Write down the numeric answer in % and omit the unit.

Use the examples below as a reference point.
>  <compound>
CCOP(=S)(OCC)Oc1cc(Cl)nn1CCC#N

>  <unitsLabel>
%

>  <valueObserved>
100

$$$$
>  <compound>
CCOP(=S)(OC)Oc1cc(Cl)nn1CC (stereo not drawn)

>  <unitsLabel>
%

>  <valueObserved>
62

$$$$
>  <compound>
COP(=S)(OC)Oc1cc(Cl)nn1C

>  <unitsLabel>
%

>  <valueObserved>
41

$$$$
>  <compound>
CCOP(=S)(OCC)Oc1cc(Cl)nn1CC

>  <unitsLabel>
%

>  <valueObserved>
96

$$$$
>  <compound>
CCOP(=S)(OCC)Oc1cc(C=C(Cl)Cl)nn1C

>  <unitsLabel>
%

>  <valueObserved>
95

$$$$
>  <compound>
CCOP(=S)(OC)Oc1cc(Cl)nn1C (stereo not drawn)

>  <unitsLabel>
%

>  <valueObserved>
100

$$$$
>  <compound>
CCOP(=S)(OCC)Oc1cc(Cl)n(-c2ccc([N+](=O)[O-])cc2)n1

>  <unitsLabel>
%

>  <valueObserved>
96

$$$$
>  <compound>
CCOP(=S)(OCC)Oc1cc(Cl)nn1C

>  <unitsLabel>
%

>  <valueObserved>
100

$$$$

[ask] Please state recorded percentage of reduction of the infestation, Meloidog. I. (tested on Meloidogyne incognita) of CCOP(=S)(OCC)Oc1cc(C)[nH]n1 [Pyrazothion, reference compound]
[reply] 0

[ask] Please state recorded percentage of reduction of the infestation, Meloidog. I. (tested on Meloidogyne incognita) of `CCOP(=S)(OCC)Oc1cc(Cl)nn1C(C)C`
[reply] 90

[ask] Please state recorded percentage of reduction of the infestation, Meloidog. I. (tested on Meloidogyne incognita) of `CCn1nc(Cl)cc1OP(=S)(OC)OC`
[reply] 100

[ask] Please state recorded percentage of reduction of the infestation, Meloidog. I. (tested on Meloidogyne incognita) of CCOP(=S)(OC)Oc1cc(Cl)nn1-c1ccccc1 (stereo not drawn)
[reply] 47

[ask] Please state recorded percentage of reduction of the infestation, Meloidog. I. (tested on Meloidogyne incognita) of `COP(=S)(OC)Oc1cc(Cl)nn1-c1ccccc1`
[reply] 80

[ask] Please state recorded percentage of reduction of the infestation, Meloidog. I. (tested on Meloidogyne incognita) of `CCOP(=S)(OCC)Oc1cc(Cl)nn1Cc1ccccc1`
[reply] 59

[ask] Please state recorded percentage of reduction of the infestation, Meloidog. I. (tested on Meloidogyne incognita) of CCOP(=S)(OC)Oc1cc(Cl)n(-c2ccc([N+](=O)[O-])cc2)n1 (stereo not drawn)
[reply] 82
